measurement target: Histone deacetylase 3/Nuclear receptor corepressor 2 (HDAC3/NCoR2) (Homo sapiens) (UniProt O15379+Q9Y618)
procedure summary: Inhibition of human recombinant full length C-terminal His-tagged HDAC3 (1 to 428 residues)/N-terminal GST-tagged NCOR2 (395 to 489 residues) expressed in baculovirus infected Sf9 insect cells at 10 uM using Boc-Lys(epsilon-acetyl)-AMC as substrate incubated for 90 mins by fluorescence assay relative to control
experimental readout: inhibition (%)
The answer is to be given in %; state only the numeric part.

smiles input | experimental readout | unit annotation | assay value
Cc1cc(C)cc(C(=O)N(CC(=O)NCc2ccccc2)Cc2ccc(C(=O)Nc3ccccc3N)cc2)c1 | inhibition | % | 32
Cc1cc(C)cc(C(=O)N(CCCCCC(=O)Nc2cc(-c3ccccc3)ccc2N)CC(=O)NCc2ccccc2)c1 | inhibition | % | 20
Cc1cc(C)cc(C(=O)N(CC(=O)NCc2ccccc2)Cc2ccc(C(=O)Nc3cc(F)ccc3N)cc2)c1 | inhibition | % | 23

Consider the additional compound presented here.
inhibition lookup needed for "COc1ccc(CNC(=O)CN(CCCCCC(=O)Nc2ccccc2N)C(=O)c2cc(C)cc(C)c2)cc1" , thanks.
49

====

measurement target: Histone deacetylase 8 (Homo sapiens)
Sequence (Q9BY41 whole entry, the tested form may be a part): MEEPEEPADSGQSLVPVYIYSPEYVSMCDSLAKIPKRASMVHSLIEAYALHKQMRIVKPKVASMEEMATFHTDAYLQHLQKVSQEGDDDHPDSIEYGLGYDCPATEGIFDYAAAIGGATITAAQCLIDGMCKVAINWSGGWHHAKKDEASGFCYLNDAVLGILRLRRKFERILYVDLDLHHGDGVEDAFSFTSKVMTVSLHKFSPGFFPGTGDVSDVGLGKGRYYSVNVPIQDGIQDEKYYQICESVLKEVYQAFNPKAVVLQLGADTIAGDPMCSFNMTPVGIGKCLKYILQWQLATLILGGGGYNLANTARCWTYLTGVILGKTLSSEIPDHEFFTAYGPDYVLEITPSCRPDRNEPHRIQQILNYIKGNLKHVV
procedure summary: Inhibition of recombinant human C-terminal His-fusion tagged/N-terminal Strep-2 tagged HDAC8 (1 to 377 residues) expressed in insect cells using Boc-Lys(TFa)-AMC as substrate preincubated for 5 mins followed by substrate addition measured after 90 mins by fluorescence assay
# Lookup of reported IC50 keyed by entry
Just the number in µM, nothing appended.

smiles input | unit annotation | assay value
CN(C)c1ccc(C(=O)N(CC(=O)NCc2ccccc2)Cc2ccc(C(=O)Nc3ccccc3N)cc2)cc1 | µM | 9.21

Now consider a different compound.
What value of IC50 on Histone deacetylase 8 (Homo sapiens) does "Cc1cc(C)cc(C(=O)N(CC(=O)NCc2ccccc2)Cc2ccc(C(=O)Nc3cc(-c4ccccc4)ccc3N)cc2)c1" have?
3.13

====

measurement target: Histone deacetylase 1 (Homo sapiens)
procedure summary: Inhibition of recombinant human full length C-terminal His/FLAG-tagged HDAC1 expressed in baculovirus infected Sf9 insect cells using ZMAL as substrate incubated for 90 mins by fluorescence assay
experimental readout: log10 IC50 (log10 of the value in nM)
All values: log10 IC50 [nM].

Can you share its log10 IC50? I mean this molecule: "Cc1cc(C)cc(C(=O)N(CCCCCC(=O)Nc2cc(-c3ccccc3)ccc2N)CC(=O)NCc2ccccc2)c1"
1.76

So what does the record say about log10 IC50 for "Cc1ccc(CNC(=O)CN(CCCCCC(=O)Nc2ccccc2N)C(=O)c2cc(C)cc(C)c2)cc1" ?
3.04

Sample "CN(C)c1ccc(C(=O)N(CCCCCC(=O)Nc2cc(F)ccc2N)CC(=O)NCc2ccccc2)cc1" — what was its log10 IC50?
3.30

====

measurement target: Histone deacetylase
procedure summary: Inhibition of HDAC in human A2780 cells using Boc-Lys(epsilon-Ac)-AMC as substrate preincubated for 18 hrs followed by substrate addition and measured after 3 hrs by fluorescence assay
Assay type: cell-based
Below, each of the molecules is paired with its reported IC50 value.
Numbers only here, please. The scale is µM.

The examples below pair each entry with its known result.
smiles input | IC50 (µM)
Cc1ccc(CNC(=O)CN(CCCCCC(=O)Nc2ccccc2N)C(=O)c2cc(C)cc(C)c2)cc1 | 4.48
Cc1cc(C)cc(C(=O)N(CCCCCC(=O)Nc2ccccc2N)CC(=O)NC2CCCCC2)c1 | 22.8
CN(C)c1ccc(C(=O)N(CC(=O)NCc2ccccc2)Cc2ccc(C(=O)Nc3ccccc3N)cc2)cc1 | 0.48

Form field: reported IC50 of "Cc1cc(C)cc(C(=O)N(CCCCCC(=O)Nc2ccccc2N)CC(=O)NCc2ccccc2)c1"
8.71

====

measurement target: Histone deacetylase 1 (Homo sapiens)
procedure summary: Inhibition of recombinant human full length C-terminal His/FLAG-tagged HDAC1 expressed in baculovirus infected Sf9 insect cells using ZMAL as substrate incubated for 90 mins by fluorescence assay
experimental readout: pIC50
Just so you know, pIC50 here is -log10 of the concentration in molar units; reply with that number alone.

smiles input | measurement target | assay value
COc1ccc(CNC(=O)CN(CCCCCC(=O)Nc2ccccc2N)C(=O)c2cc(C)cc(C)c2)cc1 | Histone deacetylase 1 (Homo sapiens) | 5.68
Cc1cc(C)cc(C(=O)N(CC(=O)NCc2ccccc2)Cc2ccc(C(=O)Nc3cc(F)ccc3N)cc2)c1 | Histone deacetylase 1 (Homo sapiens) | 6.56
Cc1cc(C)cc(C(=O)N(CC(=O)NCc2ccccc2)Cc2ccc(C(=O)Nc3ccccc3N)cc2)c1 | Histone deacetylase 1 (Homo sapiens) | 7.21

Now consider the entry below.
Give the measured pIC50 of "CN(C)c1ccc(C(=O)N(CC(=O)NCc2ccccc2)Cc2ccc(C(=O)Nc3ccccc3N)cc2)cc1" .
7.42

====

measurement target: Histone deacetylase 2 (Homo sapiens, UniProt Q92769)
Sequence (Q92769 whole entry): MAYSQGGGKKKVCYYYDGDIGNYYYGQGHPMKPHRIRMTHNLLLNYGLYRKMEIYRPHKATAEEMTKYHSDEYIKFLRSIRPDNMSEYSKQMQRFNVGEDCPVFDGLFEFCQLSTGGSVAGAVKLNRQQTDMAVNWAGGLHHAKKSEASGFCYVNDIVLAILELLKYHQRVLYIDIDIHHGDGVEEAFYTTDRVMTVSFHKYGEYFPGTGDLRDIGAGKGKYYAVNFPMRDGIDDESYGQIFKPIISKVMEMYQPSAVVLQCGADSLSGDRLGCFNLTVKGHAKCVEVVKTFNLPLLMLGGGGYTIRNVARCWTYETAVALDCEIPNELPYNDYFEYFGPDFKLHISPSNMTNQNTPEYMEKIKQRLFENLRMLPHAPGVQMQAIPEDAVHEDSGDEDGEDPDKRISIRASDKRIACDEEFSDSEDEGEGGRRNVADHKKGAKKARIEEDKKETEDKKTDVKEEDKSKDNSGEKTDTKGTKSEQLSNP
procedure summary: Inhibition of recombinant human full length C-terminal FLAG-tagged HDAC2 expressed in baculovirus infected Sf9 insect cells using Boc-Lys(epsilon-acetyl)-AMC as substrate incubated for 90 mins by fluorescence assay
Assay type: cell-based
experimental readout: pIC50
# log scale: pIC50 equals minus log10 of the concentration in mol/L

# input compound: "Nc1ccccc1NC(=O)CCCCCN(CC(=O)NC1CCCCC1)C(=O)c1ccccc1" ; wanted: its pIC50
5.23

====

measurement target: Histone deacetylase
procedure summary: Inhibition of HDAC in human CAL27 cells using Boc-Lys(epsilon-Ac)-AMC as substrate preincubated for 18 hrs followed by substrate addition and measured after 3 hrs by fluorescence assay
Type: cell-based
experimental readout: IC50 (µM)
Record the value in µM, omitting the unit from your answer.

Solved cases below.
smiles input | IC50, µM
CN(C)c1ccc(C(=O)N(CC(=O)NCc2ccccc2)Cc2ccc(C(=O)Nc3ccccc3N)cc2)cc1 | 0.11
CN(C)c1ccc(C(=O)N(CCCCCC(=O)Nc2ccccc2N)CC(=O)NCc2ccccc2)cc1 | 4.33

Missing value: IC50, Histone deacetylase, entry "CN(C)c1ccc(C(=O)N(CCCCCC(=O)Nc2cc(F)ccc2N)CC(=O)NCc2ccccc2)cc1" . Fill in?
6.82

For Histone deacetylase, provide IC50 of "Nc1ccccc1NC(=O)CCCCCN(CC(=O)NC1CCCCC1)C(=O)c1cccc2ccccc12" please.
13

Any idea what IC50 came out for "Nc1ccccc1NC(=O)CCCCCN(CC(=O)NC1CCCCC1)C(=O)c1ccccc1" on Histone deacetylase?
21.9

====

measurement target: Histone deacetylase 1 (Homo sapiens, UniProt Q13547)
Sequence (Q13547 whole entry): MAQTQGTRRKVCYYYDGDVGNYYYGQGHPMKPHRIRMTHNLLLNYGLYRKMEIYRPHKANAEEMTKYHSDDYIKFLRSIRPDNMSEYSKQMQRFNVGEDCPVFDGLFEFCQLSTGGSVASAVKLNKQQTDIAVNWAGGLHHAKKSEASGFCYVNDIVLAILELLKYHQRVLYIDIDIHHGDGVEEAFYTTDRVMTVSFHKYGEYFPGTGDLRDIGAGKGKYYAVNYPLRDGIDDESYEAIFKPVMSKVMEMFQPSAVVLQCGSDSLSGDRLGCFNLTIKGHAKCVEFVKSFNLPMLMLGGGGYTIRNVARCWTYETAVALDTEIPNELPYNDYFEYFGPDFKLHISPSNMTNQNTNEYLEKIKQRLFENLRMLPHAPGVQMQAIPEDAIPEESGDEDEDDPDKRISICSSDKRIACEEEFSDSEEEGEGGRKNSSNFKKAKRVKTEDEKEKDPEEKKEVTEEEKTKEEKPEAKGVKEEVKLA
procedure summary: Inhibition of recombinant human full length C-terminal His/FLAG-tagged HDAC1 expressed in baculovirus infected Sf9 insect cells using ZMAL as substrate incubated for 90 mins by fluorescence assay
pIC50: −log10 of the molar value.
Assign TRUE whenever pIC50 does not fall below 6; assign FALSE whenever it does.

smiles input | answer label
Nc1ccccc1NC(=O)CCCCCN(CC(=O)NCc1ccccc1)C(=O)c1cccc2ccccc12 | FALSE

Is pIC50 for "CN(C)c1ccc(C(=O)N(CC(=O)NCc2ccccc2)Cc2ccc(C(=O)Nc3cc(-c4ccccc4)ccc3N)cc2)cc1" at or above 6?
TRUE

Record "Nc1ccccc1NC(=O)CCCCCN(CC(=O)NC1CCCCC1)C(=O)c1cccc2ccccc12" ; criterion: pIC50 no lower than 6. Met?
FALSE

# check: pIC50 of "Nc1ccccc1NC(=O)CCCCCN(CC(=O)NC1CCCCC1)C(=O)c1ccccc1" is greater than or equal to 6
FALSE

Decide: is the reported value of pIC50 for "Nc1ccccc1NC(=O)c1ccc(CN(CC(=O)NCc2ccccc2)C(=O)c2cccnc2)cc1" equal to or greater than 6?
TRUE

Quick check, pIC50 >= 6? "CN(C)c1ccc(C(=O)N(CCCCCC(=O)Nc2ccccc2N)CC(=O)NCc2ccccc2)cc1"
FALSE

====

measurement target: Histone deacetylase
procedure summary: Inhibition of HDAC in human A2780 cells using Boc-Lys(epsilon-Ac)-AMC as substrate preincubated for 18 hrs followed by substrate addition and measured after 3 hrs by fluorescence assay
Format: cell-based
experimental readout: IC50 (µM)
Kindly answer with a numeric value in µM, unit omitted.

smiles input | IC50 / µM
Nc1ccccc1NC(=O)CCCCCN(CC(=O)NC1CCCCC1)C(=O)c1cccc2ccccc12 | 33.1

Given "Nc1ccccc1NC(=O)CCCCCN(CC(=O)NCc1ccccc1)C(=O)c1cccc2ccccc12" , state its recorded IC50.
10.2

Consider the molecule "Nc1ccccc1NC(=O)c1ccc(CN(CC(=O)NCc2ccccc2)C(=O)c2cccnc2)cc1" and give its measured IC50.
1.06

Form field: reported IC50 of "Cc1cc(C)cc(CNC(=O)CN(CCCCCC(=O)Nc2ccccc2N)C(=O)c2cc(C)cc(C)c2)c1"
3.17

Need IC50, item "Cc1cc(C)cc(C(=O)N(CCCCCC(=O)Nc2cc(-c3ccccc3)ccc2N)CC(=O)NCc2ccccc2)c1"
1.43

Tell me the measured IC50 of "Cc1cc(C)cc(C(=O)N(CC(=O)NCc2ccccc2)Cc2ccc(C(=O)Nc3cc(F)ccc3N)cc2)c1" , please.
1.43

Query: IC50; subject: "CN(C)c1ccc(C(=O)N(CCCCCC(=O)Nc2ccccc2N)CC(=O)NCc2ccccc2)cc1"
9.25

Endpoint output: IC50 of "Nc1ccccc1NC(=O)CCCCCN(CC(=O)NC1CCCCC1)C(=O)c1ccccc1" . Value?
43.6

Need IC50 of "CN(C)c1ccc(C(=O)N(CC(=O)NCc2ccccc2)Cc2ccc(C(=O)Nc3cc(-c4ccccc4)ccc3N)cc2)cc1" , thanks.
2.62
